test system: CEM cells HIV-1 protection, formazan growth assay; assay: NCI AIDS Antiviral Assay;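 active means compounds giving half or more protection of infected cells from virus-caused growth loss, again on retest; inactive means the rest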
Possible outcomes: Y (active), N (inactive)

> print(dat)
                                   compound  label.value
1  Cc1ccc2c(ccc(/C=C\c3cc(C)c4cccnc4c3O)[n+]2C)c1            N
2  Cc1cn(C2CC(N=[N+]=[N-])C(CO)O2)c(=O)[nH]c1=O (stereo not drawn)            Y
3  O=c1[nH]nc(-c2ccccc2)c(-c2ccccc2)c1-n1nc(-c2ccccc2)c2ccccc2c1=O            N
4           [N-]=[N+]=NC12CC3CC(CC(C3)C1)C2            N
5           NNC(=S)N/N=C/C(Cl)=C(\Cl)C(=O)O            N
6                     N=C(N)SCc1cn2ccccc2n1            N
7         CN1CCN(Cc2nc3c(s2)CCc2sccc2-3)CC1            N
8  CSC[C@H](NC(=O)COc1cccc2cnccc12)C(=O)NC(Cc1ccccc1)C(O)C(=O)N1CSC[C@H]1C(=O)NC(C)(C)C (stereo partly drawn)            Y
